target: COX-2 (Homo sapiens, UniProt P35354); construct: purchased Beyotime S0168; experiment: Anti-COX-2 assay (COX-2 Inhibitor Screening Kit); type: biochemical; conditions: 12.5 μM, single replicates
Sequence (P35354 18-604): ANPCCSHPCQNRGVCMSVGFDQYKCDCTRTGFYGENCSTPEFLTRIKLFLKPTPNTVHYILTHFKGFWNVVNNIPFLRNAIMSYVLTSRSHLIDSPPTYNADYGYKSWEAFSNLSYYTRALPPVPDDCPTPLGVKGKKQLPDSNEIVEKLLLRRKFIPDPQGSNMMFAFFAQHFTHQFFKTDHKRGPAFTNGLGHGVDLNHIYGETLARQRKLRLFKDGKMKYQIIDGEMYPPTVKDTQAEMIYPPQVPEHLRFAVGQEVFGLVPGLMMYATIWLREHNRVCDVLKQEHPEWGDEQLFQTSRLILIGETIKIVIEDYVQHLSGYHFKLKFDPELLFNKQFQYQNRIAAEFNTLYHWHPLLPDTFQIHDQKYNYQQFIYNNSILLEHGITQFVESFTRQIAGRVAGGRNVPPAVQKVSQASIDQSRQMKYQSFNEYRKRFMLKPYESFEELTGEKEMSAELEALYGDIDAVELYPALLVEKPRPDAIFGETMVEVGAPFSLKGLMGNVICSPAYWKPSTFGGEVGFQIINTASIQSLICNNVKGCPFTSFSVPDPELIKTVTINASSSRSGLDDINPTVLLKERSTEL
Quantity: inhibition at 12.5 µM
Returns: string containing the numeric result and its unit.

Here's what some known entries look like.
Molecule	Target	inhibition at 12.5 µM
O=c1cc(-c2ccc(O)c(O)c2)oc2cc(O)c(C3OC(CO)C(O)C(O)C3O)c(O)c12 [compound 18, Luteolin-6-C-β-D-glucoside]	COX-2 (Homo sapiens, UniProt P35354)	65.1%
O=c1cc(-c2ccc(O)c(O)c2)oc2c(C3OCC(O)C(O)C3O)c(O)c(C3OC(CO)C(O)C(O)C3O)c(O)c12 (centres unmarked) [compound 15]	COX-2 (Homo sapiens, UniProt P35354)	60.5%
O=c1c(O[C@@H]2O[C@H](CO)[C@@H](O)[C@H](O)[C@H]2O)c(-c2ccc(O)c(O)c2)oc2cc(O)cc(O)c12 [compound 25, Isoquercitrin]	COX-2 (Homo sapiens, UniProt P35354)	41.8%

Suppose we examine the molecule O=c1c(OC2OC(CO)C(O)C(O)C2OC2OC(CO)C(O)C(O)C2O)c(-c2ccc(O)c(O)c2)oc2cc(O)cc(O)c12 (centres unmarked) [compound 16, Quercetin-3-O-sophoroside] ; what inhibition at 12.5 µM value has been reported?
61.6%

Suppose we examine the molecule O=C(O)CC(=O)OCC1OC(Oc2c(-c3ccc(O)c(O)c3)oc3cc(O)cc(O)c3c2=O)C(O)C(O)C1O (centres unmarked) [compound 27, Quercetin 3-O-(6″-malonyl-glucoside)] ; what inhibition at 12.5 µM value has been reported?
58.4%
